Hey, just so you know, these numbers are from patent US20250136595A1.

- measuredOn: phosphorylated ERBB2 (pERBB2) (Homo sapiens, UniProt P04626)
- Construct: endogenous in cells
- Sequence (P04626 23-1255): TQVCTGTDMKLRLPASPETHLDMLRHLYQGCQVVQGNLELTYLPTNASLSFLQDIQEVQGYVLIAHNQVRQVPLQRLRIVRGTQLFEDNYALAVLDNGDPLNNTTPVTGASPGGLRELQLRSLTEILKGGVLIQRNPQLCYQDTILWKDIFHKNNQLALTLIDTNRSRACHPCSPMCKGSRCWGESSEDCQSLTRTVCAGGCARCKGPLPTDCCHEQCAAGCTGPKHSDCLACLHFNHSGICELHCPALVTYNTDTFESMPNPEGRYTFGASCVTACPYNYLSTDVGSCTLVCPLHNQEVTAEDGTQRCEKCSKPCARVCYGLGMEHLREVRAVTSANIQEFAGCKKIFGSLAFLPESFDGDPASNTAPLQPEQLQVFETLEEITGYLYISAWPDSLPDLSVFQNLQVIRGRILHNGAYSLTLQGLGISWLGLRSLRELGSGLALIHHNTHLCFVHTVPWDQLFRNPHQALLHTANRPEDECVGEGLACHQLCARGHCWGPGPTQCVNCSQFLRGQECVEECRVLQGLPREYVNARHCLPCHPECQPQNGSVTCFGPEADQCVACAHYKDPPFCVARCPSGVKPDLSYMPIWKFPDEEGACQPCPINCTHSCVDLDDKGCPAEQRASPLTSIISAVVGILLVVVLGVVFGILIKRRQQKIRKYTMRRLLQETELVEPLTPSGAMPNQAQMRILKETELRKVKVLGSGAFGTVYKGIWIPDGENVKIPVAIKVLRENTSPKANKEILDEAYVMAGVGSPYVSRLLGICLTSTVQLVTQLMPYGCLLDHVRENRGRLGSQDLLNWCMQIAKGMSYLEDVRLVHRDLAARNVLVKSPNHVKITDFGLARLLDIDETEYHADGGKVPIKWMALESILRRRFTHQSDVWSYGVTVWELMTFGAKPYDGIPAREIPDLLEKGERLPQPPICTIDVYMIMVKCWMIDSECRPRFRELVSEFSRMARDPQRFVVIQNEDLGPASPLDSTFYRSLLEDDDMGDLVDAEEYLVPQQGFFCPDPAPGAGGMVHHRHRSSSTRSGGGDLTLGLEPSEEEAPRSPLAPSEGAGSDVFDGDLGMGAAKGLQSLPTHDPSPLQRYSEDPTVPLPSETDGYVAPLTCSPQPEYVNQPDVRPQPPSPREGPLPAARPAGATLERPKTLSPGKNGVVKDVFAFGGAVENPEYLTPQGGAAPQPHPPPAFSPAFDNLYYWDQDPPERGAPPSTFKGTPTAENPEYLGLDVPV
- methodNotes: Detection of phosphorylated ERBB2 (pERBB2) by ELISA in BT-474 cells
- conditionsUsed: four hour incubation with compound
experimentalReadout: pIC50
Answer as the number alone; pIC50 is minus log10 of concentration in mol/L.

Answered examples (2):
Return pIC50 for the following molecule: C=CC(=O)N1CCN(c2ccc3ncnc(Nc4ccc(Oc5ccn6ncnc6c5)c(C)c4)c3c2)[C@@H](C)C1
7.84

Identify measured pIC50 corresponding to C=CC(=O)N1CC2CCC(C1)N2c1ccc2ncnc(Nc3ccc(Oc4ccn5ncnc5c4)c(C)c3)c2n1
7.70

Others:
Give a short answer stating reported pIC50 for C=CC(=O)N1CCN(c2ncc3ncnc(Nc4ccc(Oc5ccn6ncnc6c5)c(C)c4)c3n2)CC1 .
8.03

Query pIC50 for C=CC(=O)N1CCC[C@@H](Nc2ccc3ncnc(Nc4ccc(Oc5ccn6ncnc6c5)c(C)c4)c3n2)C1
7.53

Tell us which pIC50 value is on record for C=CC(=O)N1CCN(c2ccc3ncnc(Nc4ccc(Oc5ccc6c(c5)ncn6C)c(C)c4)c3n2)CC1
7.84

For the molecule C=CC(=O)N1CCN(c2ccc3ncnc(Nc4ccc(O[C@@H]5CCCOC5)c(C)c4)c3n2)CC1 , give its reported pIC50.
7.18

State its pIC50 for this molecule: C=CC(=O)N1CCN(c2cc3c(Nc4ccc(Cc5ccn6ncnc6c5)c(C)c4)ncnc3cn2)C[C@H]1C
7.30

* * *

- measuredOn: phosphorylated ERBB2 (pERBB2) (Homo sapiens, UniProt P04626)
- Construct: endogenous in cells
- methodNotes: Detection of phosphorylated ERBB2 (pERBB2) by ELISA in BT-474 cells
- conditionsUsed: four hour incubation with compound
experimentalReadout: IC50 (nM)
Write the answer as a number in nM, unit excluded.

Supply measured IC50 of CC#CC(=O)N1CCN(c2cc3c(Nc4ccc(Oc5ccc6c(c5)ncn6C)c(C)c4)ncnc3cn2)C[C@H]1C [Compound 71] in your reply.
22

Provide measured IC50 value, entry: C=CC(=O)N1CCN(c2cc3c(Nc4ccc(O[C@@H]5CCCOC5)c(C)c4)ncnc3cn2)CC1 [Compound 100]
63.7

Answer with the recorded IC50 of C=CC(=O)N1CCN(c2ccc3ncnc(Nc4ccc(Oc5ccc(C)nc5)c(C)c4)c3n2)CC1 [Compound 91] only.
21.9

Switching to the query record.
Give the reported IC50 for this compound. CC#CC(=O)N1CCN(c2ccc3ncnc(Nc4ccc(Oc5ccn6ncnc6c5)c(C)c4)c3n2)C[C@@H]1C [Compound 22]
62.8

* * *

- measuredOn: phosphorylated EGFR (pEGFR) (Homo sapiens)
- Construct: performed to measure phosphorylated EGFR levels using A431 cells; endogenous in cells
- Sequence (P00533 25-1210): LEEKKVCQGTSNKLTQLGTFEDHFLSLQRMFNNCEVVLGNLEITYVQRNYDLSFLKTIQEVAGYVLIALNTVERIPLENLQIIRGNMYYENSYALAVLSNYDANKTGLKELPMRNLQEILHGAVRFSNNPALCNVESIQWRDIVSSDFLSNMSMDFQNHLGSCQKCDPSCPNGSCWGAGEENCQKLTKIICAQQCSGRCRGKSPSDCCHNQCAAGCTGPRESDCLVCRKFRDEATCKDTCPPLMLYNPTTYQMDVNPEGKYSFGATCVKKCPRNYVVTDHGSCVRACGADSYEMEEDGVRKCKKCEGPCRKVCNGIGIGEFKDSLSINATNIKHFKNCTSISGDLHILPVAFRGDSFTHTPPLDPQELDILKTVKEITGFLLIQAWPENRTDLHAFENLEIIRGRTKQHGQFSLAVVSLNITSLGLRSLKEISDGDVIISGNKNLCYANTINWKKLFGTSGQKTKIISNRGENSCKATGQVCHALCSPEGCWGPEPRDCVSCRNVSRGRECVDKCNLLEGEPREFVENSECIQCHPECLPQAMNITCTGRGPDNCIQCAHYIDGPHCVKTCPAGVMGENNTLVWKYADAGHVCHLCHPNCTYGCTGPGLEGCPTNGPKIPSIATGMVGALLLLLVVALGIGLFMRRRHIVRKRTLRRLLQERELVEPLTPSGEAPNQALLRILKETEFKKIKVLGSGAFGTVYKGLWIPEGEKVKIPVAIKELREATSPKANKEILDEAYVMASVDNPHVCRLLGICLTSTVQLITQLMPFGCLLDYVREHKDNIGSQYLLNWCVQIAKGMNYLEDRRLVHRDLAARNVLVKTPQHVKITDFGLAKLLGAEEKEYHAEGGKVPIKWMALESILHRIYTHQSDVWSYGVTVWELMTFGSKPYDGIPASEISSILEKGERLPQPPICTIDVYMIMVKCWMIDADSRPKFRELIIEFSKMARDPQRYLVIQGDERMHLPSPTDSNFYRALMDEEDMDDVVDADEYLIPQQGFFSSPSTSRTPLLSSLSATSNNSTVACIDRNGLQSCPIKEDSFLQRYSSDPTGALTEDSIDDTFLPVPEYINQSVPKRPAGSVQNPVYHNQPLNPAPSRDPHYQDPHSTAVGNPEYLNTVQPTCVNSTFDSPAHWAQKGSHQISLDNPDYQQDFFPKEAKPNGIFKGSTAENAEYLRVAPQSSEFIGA
- methodNotes: Detection of phosphorylated EGFR (pEGFR) in EGF-stimulated A431 cells (AlphaLISA)
- conditionsUsed: A431 cells (10% FBS), 4 hours incubation, EGF 30 ng/mL for 10 minutes
pIC50: −log10 of the molar value.
Label n if pIC50 falls below 6; label y in every other case.

Worked set:
Has CC#CC(=O)N1CCN(c2ncc3ncnc(Nc4ccc(Oc5ccc6c(c5)ncn6C)c(C)c4)c3n2)C[C@H]1C a recorded pIC50 greater than or equal to 6?
n

Is it the case that Cc1cc(Nc2ncnc3ccc(N4CCN(C(=O)/C=C/CN(C)C)CC4)nc23)ccc1Cc1ccc2c(c1)ncn2C has pIC50 reaching or exceeding 6?
n

Evaluate CC#CC(=O)N1CCN(c2ccc3ncnc(Nc4ccc(Oc5ccn6ncnc6c5)c(C)c4)c3n2)[C@H](C)C1 : pIC50 at minimum 6?
n

Is reported pIC50 greater than or equal to 6 here: C=CC(=O)N1C2CCC1CN(c1ccc3ncnc(Nc4ccc(Oc5ccn6ncnc6c5)c(C)c4)c3n1)C2
y

Tell me whether pIC50 is at least 6 here: C=CC(=O)N1CCC2(CC1)CN(c1ccc3ncnc(Nc4ccc(Oc5ccn6ncnc6c5)c(C)c4)c3n1)C2
n

More entries:
Decide: is the reported value of pIC50 for C=CC(=O)N1CCN(c2ncc3ncnc(Nc4ccc(Oc5ccc6c(c5)ncn6C)c(C)c4)c3n2)[C@@H](C)C1 equal to or greater than 6?
n

I'd appreciate it if you could say whether C=CC(=O)N1CC[C@H](Oc2ccc3ncnc(Nc4ccc(Oc5ccn6ncnc6c5)c(C)c4)c3c2)C1 has pIC50 at least equal to 6.
y

* * *

- measuredOn: phosphorylated ERBB2 (pERBB2) (Homo sapiens, UniProt P04626)
- Construct: endogenous in cells
- methodNotes: Detection of phosphorylated ERBB2 (pERBB2) by ELISA in BT-474 cells
- conditionsUsed: four hour incubation with compound
The class of a record is decided solely by its measured IC50; consult low range: < 0.02 µM; mid range: ≥ 0.02 µM and < 0.04 µM; high range: ≥ 0.04 µM

Would you mind sorting C=CC(=O)N1CCN(c2ccc3ncnc(Nc4ccc(Cc5ccn6ncnc6c5)c(C)c4)c3n2)CC1 into the appropriate category?
low range

For the record C=CC(=O)N1CCN(c2ncc3ncnc(Nc4ccc(Cc5ccn6ncnc6c5)c(C)c4)c3n2)CC1 , report the class its IC50 corresponds to.
low range

Please indicate the class for C=CC(=O)N1CCN(c2ccc3ncnc(Nc4ccc(Cc5ccc6c(c5)ncn6C)c(C)c4)c3n2)[C@@H](C)C1 based on its IC50.
high range

// bin(item) where item = C=CC(=O)N1CCN(c2cc3c(Nc4ccc(Cc5ccc6c(c5)ncn6C)c(C)c4)ncnc3cn2)[C@@H](C)C1
high range

Continuing:
Exam item: assign C=CC(=O)N1CCN(c2ccc3ncnc(Nc4ccc(Oc5ccn6ncnc6c5)c(C)c4)c3n2)[C@H](C)C1 to the correct category.
low range

Returns: class label. Input: C=CC(=O)N1CCN(c2ncc3ncnc(Nc4ccc(Oc5ccc6c(c5)ncn6C)c(C)c4)c3n2)[C@@H](C)C1
mid range

Pick a category. Item: C=CC(=O)N1CCN(c2ccc3ncnc(Nc4ccc(Cc5ccn6ncnc6c5)c(C)c4)c3c2F)C(C)C1 (stereo not drawn)
high range

Class label required: C=CC(=O)N1CCN(c2cc3c(Nc4ccc(Cc5ccc6c(c5)ncn6C)c(C)c4)ncnc3cn2)C[C@H]1C
mid range

Hello team, could you let me know which band the following molecule falls into: C=CC(=O)N1CCN(c2ccc3ncnc(Nc4ccc(Oc5ccn6ncnc6c5)c(C)c4)c3n2)C[C@H]1C
low range

Where would C=CC(=O)N1CCN(c2ncc3ncnc(Nc4ccc(Oc5ccc6c(c5)ncn6C)c(C)c4)c3n2)CC1 land among the classes by reported IC50?
low range

Field: class (IC50) — entry: CC#CC(=O)N1CC2CCC(C1)N2c1ccc2ncnc(Nc3ccc(Oc4ccn5ncnc5c4)c(C)c3)c2n1
mid range

Quick check: band for C=CC(=O)N1CCN(c2ncc3ncnc(Nc4ccc(Oc5ccn6ncnc6c5)c(C)c4)c3n2)C[C@H]1C
low range

Which class holds C=CC(=O)N1CCN(c2cc3c(Nc4ccc(OC5CCN(C(=O)CC(C)(C)C)CC5)c(C)c4)ncnc3cn2)CC1 ?
high range

For CC#CC(=O)N1CCN(c2ncc3ncnc(Nc4ccc(Oc5ccc6c(c5)ncn6C)c(C)c4)c3n2)C[C@H]1C , which IC50 bin applies?
high range

* * *

- measuredOn: phosphorylated ERBB2 (pERBB2) (Homo sapiens, UniProt P04626)
- Construct: endogenous in cells
- methodNotes: Detection of phosphorylated ERBB2 (pERBB2) by ELISA in BT-474 cells
- conditionsUsed: four hour incubation with compound
experimentalReadout: pIC50
To interpret pIC50, take it as minus log10 of a concentration measured in moles per litre.

Some solved cases for reference:
Provide pIC50 value for the following molecule: C=CC(=O)N1CCN(c2ncc3ncnc(Nc4ccc(Cc5ccc6c(c5)ncn6C)c(C)c4)c3n2)C[C@H]1C [Compound 96]
7.20

Identify measured pIC50 corresponding to C=CC(=O)N1CCN(c2cc3c(Nc4ccc(Cc5ccn6ncnc6c5)c(C)c4)ncnc3cn2)[C@@H](C)C1 [Compound 85]
7.32

Annotate the molecule C=CC(=O)N1CCN(c2cc3c(Nc4ccc(Cc5ccn6ncnc6c5)c(C)c4)ncnc3cn2)CC1 [Compound 103] with its measured pIC50.
7.80

Recall and state the measured pIC50 for C=CC(=O)N1CCN(c2cc3c(Nc4ccc(Cc5ccc6c(c5)ncn6C)c(C)c4)ncnc3cn2)CC1 [Compound 83, formic acid] .
7.59

Report pIC50, nothing else, for this molecule: C=CC(=O)N1CCN(c2cc3c(Nc4ccc(Oc5ccn6ncnc6c5)c(C)c4)ncnc3cn2)C[C@H]1C [Compound 55]
7.92

New cases:
Write down pIC50 measured for item C=CC(=O)N1CCN(c2ncc3ncnc(Nc4ccc(Cc5ccn6ncnc6c5)c(C)c4)c3n2)C[C@H]1C [Compound 111]
7.55

Specify measured pIC50 for C=CC(=O)N1CCN(c2ncc3ncnc(Nc4ccc(Cc5ccn6ncnc6c5)c(C)c4)c3n2)[C@@H](C)C1 [Compound 113] .
7.50

// Input: C=CC(=O)N1C2CCC1CN(c1ccc3ncnc(Nc4ccc(Oc5ccc6c(c5)ncn6C)c(C)c4)c3n1)C2 [Compound 74] . Output its pIC50 only.
7.43

Hello, please tell me recorded pIC50 for this one: C=CC(=O)N1CC[C@H](Nc2ccc3ncnc(Nc4ccc(Oc5ccn6ncnc6c5)c(C)c4)c3n2)C1 [Compound 43]
8.29

Given C=CC(=O)N1CC[C@@H](Oc2ccc3ncnc(Nc4ccc(Oc5ccc6c(c5)ncn6C)c(C)c4)c3c2)C1 [Compound 37] , respond with its pIC50.
7.47

Specify measured pIC50 for C=CC(=O)N1CCN(c2ccc3ncnc(Nc4ccc(Oc5ccc6c(c5)ncn6C)c(C)c4)c3n2)C[C@@H]1C [Compound 47] .
7.52

Query pIC50 for C=CC(=O)N1CCN(c2cc3c(Nc4ccc(Oc5ccn6ncnc6c5)c(C)c4)ncnc3cn2)[C@@H](C)C1 [Compound 69]
7.22

Using the record for CC#CC(=O)N1CCN(c2ccc3ncnc(Nc4ccc(Oc5ccc6c(c5)ncn6C)c(C)c4)c3n2)C[C@H]1C [Compound 65] , state its measured pIC50.
7.53

Look up and report measured pIC50 for this entry: CC#CC(=O)N1CC2CCC(C1)N2c1ccc2ncnc(Nc3ccc(Oc4ccc5c(c4)ncn5C)c(C)c3)c2n1 [Compound 75]
7.37
